target: LARP1 DM15 region (human, UniProt Q6PKG0 873-1023); test: EMSA; tRNA and BSA competitors; ~500 nM when corrected for active protein; EMSA: 20 mM Tris-HCl pH 8, 150 mM NaCl, 10% glycerol, 1 mM DTT, 0.5 ug tRNA, 1 ug BSA, <2 nM RNA, 30 min on ice, native 0.5x TBE gel at 4 C; conditions: protein: recombinant; tags: His6-MBP removed by TEV; glycine linker remnant; label: 5'-32P (EMSA, probing)
ENDPOINT LABEL: Kd (nM)

INSERT INTO measurements (binder, endpoint_label, numeric_readout) VALUES
  ('CCUCUUUUCCGUGGCGCCUC (ssRNA) [RPS6-20mer]', 'Kd', 776);
